Reference source for all entries: the supplement of paper PMC10266784

B1: library; numbered along this chain (parent)
chain: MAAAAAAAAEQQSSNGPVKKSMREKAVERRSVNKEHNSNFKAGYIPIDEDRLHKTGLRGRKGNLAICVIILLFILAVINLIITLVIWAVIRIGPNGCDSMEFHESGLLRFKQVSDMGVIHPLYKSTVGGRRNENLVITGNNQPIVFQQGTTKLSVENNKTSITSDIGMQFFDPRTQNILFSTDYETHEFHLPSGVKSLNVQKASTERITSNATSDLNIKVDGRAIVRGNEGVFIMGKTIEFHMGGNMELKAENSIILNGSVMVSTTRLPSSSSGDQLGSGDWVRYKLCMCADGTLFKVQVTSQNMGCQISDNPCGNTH

Variants of: B1
Experiment: SGCB cell-surface expression functional score (HA stain, bin4 vs bin1, normalised to synonymous) (log10 ratio); higher = more cell-surface SGCB (functional)
Here, each record is paired with measured SGCB cell-surface expression functional score (log10) data.

// solved cases for SGCB cell-surface expression functional score (log10) follow
variant_annotation | experimental_result
I47Q | 0.68
V77S | -0.06
R23N | 0.03
N79H | -0.33
M116I | -1.03
Q11Y | 0.17
M247I | 0.34
M1P | 0.21

// switching to the query variant
Dear colleague, I am looking for the recorded SGCB cell-surface expression functional score (log10) of the following variant: `T175W`
1.12
